System: human airway epithelial cells (HAECs)
assay-name: High-throughput sequencing (HTS) of miRNAs at four stages of differentiation of HAECs
recorded-conditions: stage D7; Table VI
Below is a list of entries, each paired with its recorded Level of intensity of expression in log2 measured by high-throughput sequencing, D7 value.
State the answer as a number, implicitly in log2.

Examples from the recorded data:
Recall the recorded Level of intensity of expression in log2 measured by high-throughput sequencing, D7 for hsa-miR-425: human miRNA, SEQ ID No. 44 (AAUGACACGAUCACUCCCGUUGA; expressed or natural sequence; listed as Homo sapiens) with human airway epithelial cells (HAECs) and state it.
11.01

Also hsa-miR-140-3p: human miRNA, SEQ ID No. 5 (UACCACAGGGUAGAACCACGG; expressed or natural sequence; listed as Homo sapiens) , if possible.
12.72

Continuing:
Recall the recorded Level of intensity of expression in log2 measured by high-throughput sequencing, D7 for hsa-miR-200b: human miRNA, SEQ ID No. 17 (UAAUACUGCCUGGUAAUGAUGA; expressed or natural sequence; listed as Homo sapiens) with human airway epithelial cells (HAECs) and state it.
9.37

Also hsa-miR-30b: human miRNA, SEQ ID No. 33 (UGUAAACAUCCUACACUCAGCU; expressed or natural sequence; listed as Homo sapiens) , if possible.
9.33

* * *

System: basal cells and pyramidal cells of the airway epithelium
assay-name: miRNA expression in sorted basal cells versus pyramidal cells (ciliated + secretory), HTS and Agilent chips
Set-up: species or system human
recorded-conditions: pyramidal cells (ciliated + secretory)
Threshold-based label: Intensity of the level of expression in log2 in pyramidal cells (323(−)) under 6 log2 gives Criterion met, Intensity of the level of expression in log2 in pyramidal cells (323(−)) not under 6 log2 gives Criterion not met.

Given hsa-miR-200a: human miRNA, SEQ ID No. 16 (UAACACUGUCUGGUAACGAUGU; expressed or natural sequence; listed as Homo sapiens) , is recorded Intensity of the level of expression in log2 in pyramidal cells (323(−)) strictly lower than 6 log2?
Criterion not met

Also hsa-miR-203: human miRNA, SEQ ID No. 19 (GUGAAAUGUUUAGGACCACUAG; expressed or natural sequence; listed as Homo sapiens) , if possible.
Criterion met

Also hsa-miR-99a: human miRNA, SEQ ID No. 52 (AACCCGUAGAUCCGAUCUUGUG; expressed or natural sequence; listed as Homo sapiens) , if possible.
Criterion not met

Continuing:
Given hsa-miR-26b: human miRNA, SEQ ID No. 29 (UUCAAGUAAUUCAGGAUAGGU; expressed or natural sequence; listed as Homo sapiens) , is recorded Intensity of the level of expression in log2 in pyramidal cells (323(−)) strictly lower than 6 log2?
Criterion not met

Also hsa-miR-429: human miRNA, SEQ ID No. 45 (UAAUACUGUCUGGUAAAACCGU; expressed or natural sequence; listed as Homo sapiens) , if possible.
Criterion not met

Also hsa-miR-224: human miRNA, SEQ ID No. 24 (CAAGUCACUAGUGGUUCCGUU; expressed or natural sequence; listed as Homo sapiens) , if possible.
Criterion met

Also hsa-miR-15a: human miRNA, SEQ ID No. 9 (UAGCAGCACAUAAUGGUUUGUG; expressed or natural sequence; listed as Homo sapiens) , if possible.
Criterion met

Also hsa-miR-365: human miRNA, SEQ ID No. 41 (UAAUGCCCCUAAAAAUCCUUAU; expressed or natural sequence; listed as Homo sapiens) , if possible.
Criterion met

Also hsa-miR-22: human miRNA, SEQ ID No. 23 (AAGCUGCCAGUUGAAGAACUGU; expressed or natural sequence; listed as Homo sapiens) , if possible.
Criterion not met

Also hsa-miR-16: human miRNA, SEQ ID No. 10 (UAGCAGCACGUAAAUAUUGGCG; expressed or natural sequence; listed as Homo sapiens) , if possible.
Criterion not met

Also hsa-miR-574-3p: human miRNA, SEQ ID No. 48 (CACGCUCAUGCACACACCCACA; expressed or natural sequence; listed as Homo sapiens) , if possible.
Criterion met

* * *

Test system: human airway epithelial cells (HAECs)
assay-name: Agilent miRNA chips, miRNA expression at four stages of differentiation of HAECs
recorded-conditions: stage D0; Table VI
Threshold-based label: Level of intensity of expression in log2 measured with the Agilent chips, D0 under 8 log2 gives true, Level of intensity of expression in log2 measured with the Agilent chips, D0 not under 8 log2 gives false.

Given hsa-miR-148a: human miRNA, SEQ ID No. 7 (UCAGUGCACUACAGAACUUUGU; expressed or natural sequence; listed as Homo sapiens) , is recorded Level of intensity of expression in log2 measured with the Agilent chips, D0 strictly lower than 8 log2?
true

Also hsa-miR-374a: human miRNA, SEQ ID No. 42 (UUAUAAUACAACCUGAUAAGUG; expressed or natural sequence; listed as Homo sapiens) , if possible.
true

Also hsa-let-7c: human miRNA, SEQ ID No. 159 (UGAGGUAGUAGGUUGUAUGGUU; expressed or natural sequence; listed as Homo sapiens) , if possible.
false

Also hsa-miR-23b: human miRNA, SEQ ID No. 26 (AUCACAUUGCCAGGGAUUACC; expressed or natural sequence; listed as Homo sapiens) , if possible.
false

Also hsa-miR-191: human miRNA, SEQ ID No. 13 (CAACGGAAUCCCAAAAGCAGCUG; expressed or natural sequence; listed as Homo sapiens) , if possible.
true

Also hsa-miR-141: human miRNA, SEQ ID No. 6 (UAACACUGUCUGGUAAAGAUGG; expressed or natural sequence; listed as Homo sapiens) , if possible.
false
